Where do these numbers come from? They come from ChEMBL document CHEMBL3988442.

Target: Protein translocase subunit SecA (Escherichia coli (strain K12))
Experiment: Assay to Identify E. coli SecA ATPase Inhibitors
Assay type: functional
Design: scale not given: direction of the effect not stated beside the values
Conditions: 30 µM
Measured potencies and affinities stand elsewhere.

COMPOUND | Percent Effect (%)
Cn1ccnc1CN1CCN(Cc2noc(-c3ccccc3)n2)CC1 | -3.61
Cc1ccc(NC(=O)CNc2cccc3c2CCCC3)c(Br)c1 | -0.516
OC(CNCCn1cccn1)c1ccc(F)c(F)c1 (stereo unspecified) | 1.48
Cc1cccc(-n2c(C)cc(C(=O)N3CCn4c(C)nnc4C3)c2C)c1 | -3.26
O=C(c1ccc[nH]1)N1C[C@H](OCc2cccnc2)[C@H]2COC[C@H]21 | -4.86
CN(C)CCOCC1CN(Cc2ccsc2)Cc2ccnn2C1 (stereo unspecified) | -2.84
CCCS(=O)(=O)N1CCN(c2cc(-n3nc(C)cc3C)nc(C)n2)CC1 | -2.23
Cn1cnc2c1CCN(Cc1csc(-c3ccsc3)n1)C2 | -0.725
O=C(c1ccc(-n2cccn2)nc1)N1CCC(Nc2cccnn2)CC1 | -8.1
CCOc1ccc(C(C)NC(=O)N2CCC(C(N)=O)CC2)cc1OC (stereo unspecified) | -4.66
Cc1cc(C(=O)O)cc(S(=O)(=O)Nc2ccc3c(c2)OCO3)c1C | -0.174
